Exercise: state measured pKd for each of the binders provided.
Assayed target: human NKp30 (human) (UniProt O14931)
Sequence (O14931 19-135 limits assumed): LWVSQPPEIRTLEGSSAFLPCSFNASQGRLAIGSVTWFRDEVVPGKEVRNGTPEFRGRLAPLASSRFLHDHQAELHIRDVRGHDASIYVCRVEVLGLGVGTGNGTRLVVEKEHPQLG
Method description: BLI, immunoligand on anti-hFc tip
Quick note: pKd values are minus log10 of concentrations in mol/L.

pKd for ΔB7-H6_S3#19-SEED-PGLALA (bispecific antibody, part only; not given: SEED Fc chains and hu225 Fab, part only) chain, part: DLKVEMMAGGTQITPLNDNVTIFCNIFYSQPLNITQMGITWFWKSLTFDKEVKVFEFWGDHQEAFRPGAIVSPWRLKSGDASLRLPGIQLEEAGEYRCEVVVTPYKAQGTVQLEVVASPAS ?
6.84

pKd for ΔB7-H6_S3#30-SEED-PGLALA (bispecific antibody, part only; not given: SEED Fc chains and hu225 Fab, part only) chain, part: DLKVEMMAGGTQITPLNDNVTIFCNIFYSQPLNITEMGITWFWKSLTFDKEVKVFEFWGDHQEAFRPGAIVSPWRLKSGDASLRLPGIQLEEAGEYRCEVIVTPLKAQGTVQLEVVASPAS ?
6.90

pKd for ΔB7-H6_S3#26-SEED-PGLALA (bispecific antibody, part only; not given: SEED Fc chains and hu225 Fab, part only) chain, part: DLKVEMMAGGTQITPLNDNVTIFCNIFYSQPLNITTMGITWFWKSLTFDKEVKVFEFWDDHQEAFRPGAIVSPWRLKSGDASLRLPGIQLEEAGEYRCEVVVTPYKAQGTVQLEVVASPAS ?
6.95

pKd for ΔB7-H6_S2#4-SEED-PGLALA (bispecific antibody, part only; not given: SEED Fc chains and hu225 Fab, part only) chain, part: DLKVEMMAGGTQITPLNDNVTIFCNIFYSQPLNITHMGITWFWKSLTFDKEVKVFEFYADHQEAIRPGAIVSPWRLKSGDASLRLPGIQLEEAGEYRCEVVVTPYKAQGTVQLEVVASPAS ?
6.83

pKd for ΔB7-H6_S2#7-SEED-PGLALA (bispecific antibody, part only; not given: SEED Fc chains and hu225 Fab, part only) chain, part: DLKVEMMAGGTQITPLNDNVTIFCNIFYSQPLNITSMGITWFWKSLTFDKEVKVFEFYGDHQEAFRPGAIVSPWRLKSGDASLRLPGIQLEEAGEYRCEVIVTPYKAQGTVQLEVVTSPAS ?
6.72

pKd for ΔB7-H6_S2#11-SEED-PGLALA (bispecific antibody, part only; not given: SEED Fc chains and hu225 Fab, part only) chain, part: DLKVEMMAGGTQITPLNDNVTIFCNIFYSQPLNITTMGITWFWKSLTFDKEVKVFEFWQDHQEAFRPGAIVSPWRLKSGDASLRLPGIQLEEAGEYRCEVVVTPLKAQGTVQLEVVASPAS ?
6.63

// provenance: patent US20230287082A1
